- tested.target: hGHQ141N (human, UniProt P01241 27-217)
- Sequence (P01241 27-217 Q167N): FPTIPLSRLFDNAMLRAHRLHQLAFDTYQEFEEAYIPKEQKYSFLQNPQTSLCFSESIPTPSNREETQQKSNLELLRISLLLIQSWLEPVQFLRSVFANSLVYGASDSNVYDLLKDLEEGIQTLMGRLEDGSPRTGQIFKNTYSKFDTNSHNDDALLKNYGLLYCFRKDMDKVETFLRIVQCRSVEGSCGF
- method: cell-based or functional assay

{"binder": "S. ladakanum GlyPro-TGase mutant Y75L (enzyme) GPDSDERVTPPAEPLDRMPDPYRPSYGRAETIVNNYIRKWQQVYSHRDGRKQQMTEEQREWLSYGCVGVTWVNSGQLPTNRLAFAFFDEDKYKNELKNGRPRSGETRAEFEGRVAKDSFDEAKGFQRARDVASVMNKALENAHDEGAYLDNLKKELANGNDALRNEDARSPFYSALRNTPSFKDRNGGNHDPSKMKAVIYSKHFWSGQDRSGSSDKRKYGDPEAFRPDRGTGLVDMSRDRNIPRSPTSPGESFVNFDYGWFGAQTEADADKTVWTHGNHYHAPNGSLGAMHVYESKFRNWSDGYSDFDRGAYVVTFVPKSWNTAPDKVKQGWP", "RSA Q40": "0.06 relative to wild type TGase"}
{"binder": "S. ladakanum GlyPro-TGase mutant S250G (enzyme) GPDSDERVTPPAEPLDRMPDPYRPSYGRAETIVNNYIRKWQQVYSHRDGRKQQMTEEQREWLSYGCVGVTWVNSGQYPTNRLAFAFFDEDKYKNELKNGRPRSGETRAEFEGRVAKDSFDEAKGFQRARDVASVMNKALENAHDEGAYLDNLKKELANGNDALRNEDARSPFYSALRNTPSFKDRNGGNHDPSKMKAVIYSKHFWSGQDRSGSSDKRKYGDPEAFRPDRGTGLVDMSRDRNIPRSPTSPGEGFVNFDYGWFGAQTEADADKTVWTHGNHYHAPNGSLGAMHVYESKFRNWSDGYSDFDRGAYVVTFVPKSWNTAPDKVKQGWP", "RSA Q40": "1.77 relative to wild type TGase"}
{"binder": "S. ladakanum GlyPro-TGase mutant S250A (enzyme) GPDSDERVTPPAEPLDRMPDPYRPSYGRAETIVNNYIRKWQQVYSHRDGRKQQMTEEQREWLSYGCVGVTWVNSGQYPTNRLAFAFFDEDKYKNELKNGRPRSGETRAEFEGRVAKDSFDEAKGFQRARDVASVMNKALENAHDEGAYLDNLKKELANGNDALRNEDARSPFYSALRNTPSFKDRNGGNHDPSKMKAVIYSKHFWSGQDRSGSSDKRKYGDPEAFRPDRGTGLVDMSRDRNIPRSPTSPGEAFVNFDYGWFGAQTEADADKTVWTHGNHYHAPNGSLGAMHVYESKFRNWSDGYSDFDRGAYVVTFVPKSWNTAPDKVKQGWP", "RSA Q40": "2.57 relative to wild type TGase"}
{"binder": "S. ladakanum GlyPro-TGase mutant S250Y (enzyme) GPDSDERVTPPAEPLDRMPDPYRPSYGRAETIVNNYIRKWQQVYSHRDGRKQQMTEEQREWLSYGCVGVTWVNSGQYPTNRLAFAFFDEDKYKNELKNGRPRSGETRAEFEGRVAKDSFDEAKGFQRARDVASVMNKALENAHDEGAYLDNLKKELANGNDALRNEDARSPFYSALRNTPSFKDRNGGNHDPSKMKAVIYSKHFWSGQDRSGSSDKRKYGDPEAFRPDRGTGLVDMSRDRNIPRSPTSPGEYFVNFDYGWFGAQTEADADKTVWTHGNHYHAPNGSLGAMHVYESKFRNWSDGYSDFDRGAYVVTFVPKSWNTAPDKVKQGWP", "RSA Q40": "0.95 relative to wild type TGase"}
{"binder": "S. ladakanum GlyPro-TGase mutant S250R (enzyme) GPDSDERVTPPAEPLDRMPDPYRPSYGRAETIVNNYIRKWQQVYSHRDGRKQQMTEEQREWLSYGCVGVTWVNSGQYPTNRLAFAFFDEDKYKNELKNGRPRSGETRAEFEGRVAKDSFDEAKGFQRARDVASVMNKALENAHDEGAYLDNLKKELANGNDALRNEDARSPFYSALRNTPSFKDRNGGNHDPSKMKAVIYSKHFWSGQDRSGSSDKRKYGDPEAFRPDRGTGLVDMSRDRNIPRSPTSPGERFVNFDYGWFGAQTEADADKTVWTHGNHYHAPNGSLGAMHVYESKFRNWSDGYSDFDRGAYVVTFVPKSWNTAPDKVKQGWP", "RSA Q40": "0.59 relative to wild type TGase"}
{"binder": "S. ladakanum GlyPro-TGase mutant S250H (enzyme) GPDSDERVTPPAEPLDRMPDPYRPSYGRAETIVNNYIRKWQQVYSHRDGRKQQMTEEQREWLSYGCVGVTWVNSGQYPTNRLAFAFFDEDKYKNELKNGRPRSGETRAEFEGRVAKDSFDEAKGFQRARDVASVMNKALENAHDEGAYLDNLKKELANGNDALRNEDARSPFYSALRNTPSFKDRNGGNHDPSKMKAVIYSKHFWSGQDRSGSSDKRKYGDPEAFRPDRGTGLVDMSRDRNIPRSPTSPGEHFVNFDYGWFGAQTEADADKTVWTHGNHYHAPNGSLGAMHVYESKFRNWSDGYSDFDRGAYVVTFVPKSWNTAPDKVKQGWP", "RSA Q40": "1.4 relative to wild type TGase"}
{"binder": "S. ladakanum GlyPro-TGase mutant S250M (enzyme) GPDSDERVTPPAEPLDRMPDPYRPSYGRAETIVNNYIRKWQQVYSHRDGRKQQMTEEQREWLSYGCVGVTWVNSGQYPTNRLAFAFFDEDKYKNELKNGRPRSGETRAEFEGRVAKDSFDEAKGFQRARDVASVMNKALENAHDEGAYLDNLKKELANGNDALRNEDARSPFYSALRNTPSFKDRNGGNHDPSKMKAVIYSKHFWSGQDRSGSSDKRKYGDPEAFRPDRGTGLVDMSRDRNIPRSPTSPGEMFVNFDYGWFGAQTEADADKTVWTHGNHYHAPNGSLGAMHVYESKFRNWSDGYSDFDRGAYVVTFVPKSWNTAPDKVKQGWP", "RSA Q40": "2.22 relative to wild type TGase"}
{"binder": "S. ladakanum GlyPro-TGase mutant S250L (enzyme) GPDSDERVTPPAEPLDRMPDPYRPSYGRAETIVNNYIRKWQQVYSHRDGRKQQMTEEQREWLSYGCVGVTWVNSGQYPTNRLAFAFFDEDKYKNELKNGRPRSGETRAEFEGRVAKDSFDEAKGFQRARDVASVMNKALENAHDEGAYLDNLKKELANGNDALRNEDARSPFYSALRNTPSFKDRNGGNHDPSKMKAVIYSKHFWSGQDRSGSSDKRKYGDPEAFRPDRGTGLVDMSRDRNIPRSPTSPGELFVNFDYGWFGAQTEADADKTVWTHGNHYHAPNGSLGAMHVYESKFRNWSDGYSDFDRGAYVVTFVPKSWNTAPDKVKQGWP", "RSA Q40": "1.9 relative to wild type TGase"}
